FYI, the data here is from paper PMC3375153.

substrate: O=[N+]([O-])c1ccc(OP(=O)(O)O)cc1; test: chromogenic phosphatase assay, A400; assay type: biochemical, Thermosynechococcus vestitus; settings: 50 mM Tris-HCl pH 8.3, 50 mM NaCl, 1 mM DTT, 2 mM MnCl2, 30 °C, pNPP 0.1-10 mM
Kindly supply the reported Km values for the records listed here.
Reply with just the number (in mM).

// returns reported Km for input tPphA (Thermosynechococcus vestitus BP-1; R13Y) (protein) MDVAGLTDCGLIYKSNQDAFYIDEKHQRFFIVADGMGGHAGGEEASRLAVDHIRQYLETHLEDLQHDPVTLLRQAFLAANHAIVEQQRQNSARADMGTTAVVILLDEKGDRAWCAHVGDSRIYRWRKDQLQQITSDHTWIAQAVQLGSLTIEQARQHPWRHVLSQCLGREDLSQIDIQPIDLEPGDRLLLCSDGLTEELTDDVISIYLSEPNVQKAAAALVDAAKTHGGRDNVTVVVISV
4.31

If you can, please state the reported Km value of tPphA (Thermosynechococcus vestitus BP-1; R13N) (protein) MDVAGLTDCGLINKSNQDAFYIDEKHQRFFIVADGMGGHAGGEEASRLAVDHIRQYLETHLEDLQHDPVTLLRQAFLAANHAIVEQQRQNSARADMGTTAVVILLDEKGDRAWCAHVGDSRIYRWRKDQLQQITSDHTWIAQAVQLGSLTIEQARQHPWRHVLSQCLGREDLSQIDIQPIDLEPGDRLLLCSDGLTEELTDDVISIYLSEPNVQKAAAALVDAAKTHGGRDNVTVVVISV .
4.73
